tested on: Klebsiella pneumoniae; experiment: Antibacterial activity against NDM-1 positive Klebsiella pneumoniae ATCC BAA-2146 after 18 hrs by agar dilution method; type: functional; conditions: ATCC BAA-2146, 18 h
Entries and their MIC

Past entries and their recorded results:
1. CNC(=N)NCCC/C=C/CCC[C@H](C)C[C@H](C)[C@H]1OC(=O)[C@H](C)[C@H](O)/C=C/[C@H](C)[C@H](O)C[C@H](O)[C@H](C)[C@@H](O)CC[C@H](C)[C@H](O)C[C@]2(OC)O[C@H](C[C@@H](OC(=O)CC(=O)O)C[C@H](O)C[C@@H](O)[C@H](C)[C@H](O)/C=C/C=C/[C@@H]1C)C[C@H](O)[C@H]2O : > 64 µg/mL
2. CNC(=N)NCCC/C=C/CCC[C@H](C)C[C@H](C)[C@H]1OC(=O)[C@H](C)[C@H](O)/C=C/[C@H](C)[C@H](O)C[C@H](O)[C@H](C)[C@@H](O)CC[C@H](C)[C@H](O)CC(O)[C@H](O)[C@@H](O)C[C@H](O)C[C@@H](O)C[C@H](O)C[C@@H](O)[C@H](C)[C@H](O)/C=C/C=C/[C@@H]1C (stereo partly drawn) : > 64 µg/mL

Consider the record given below.
Bench note: what MIC did CNC(=N)NCCC/C=C/CCC[C@H](C)C[C@H](C)[C@H]1OC(=O)[C@H](C)[C@H](O)/C=C/[C@H](C)[C@H](O)C[C@H](O)[C@H](C)[C@@H](O)CC[C@H](C)[C@H](O)C[C@]2(O)O[C@H](C[C@@H](OC(=O)CC(=O)O)C[C@H](O)C[C@@H](O)[C@H](C)[C@H](O)/C=C/C=C/[C@@H]1C)C[C@H](O)[C@H]2O show?
> 64 µg/mL

====

test system: Morganella morganii; test: Antibacterial activity against Morganella morganii ATCC 25830 after 18 hrs by agar dilution method; assay type: functional; details: ATCC 25830, 18 h
Entries and their MIC

Bench note: what MIC did CNC(=N)NCCC/C=C/CCC[C@H](C)C[C@H](C)[C@H]1OC(=O)[C@H](C)[C@H](O)/C=C/[C@H](C)[C@H](O)C[C@H](O)[C@H](C)[C@@H](O)CC[C@H](C)[C@H](O)C[C@]2(O)O[C@H](C[C@@H](OC(=O)CC(=O)O)C[C@H](O)C[C@@H](O)[C@H](C)[C@H](O)/C=C/C=C/[C@@H]1C)C[C@H](O)[C@H]2O show?
> 64 µg/mL

Bench note: what MIC did CNC(=N)NCCC/C=C/CCC[C@H](C)C[C@H](C)[C@H]1OC(=O)[C@H](C)[C@H](O)/C=C/[C@H](C)[C@H](O)C[C@H](O)[C@H](C)[C@@H](O)CC[C@H](C)[C@H](O)C[C@]2(OC)O[C@H](C[C@@H](OC(=O)CC(=O)O)C[C@H](O)C[C@@H](O)[C@H](C)[C@H](O)/C=C/C=C/[C@@H]1C)C[C@H](O)[C@H]2O show?
> 64 µg/mL

Bench note: what MIC did CNC(=N)NCCC/C=C/CCC[C@H](C)C[C@H](C)[C@H]1OC(=O)[C@H](C)[C@H](O)/C=C/[C@H](C)[C@H](O)C[C@H](O)[C@H](C)[C@@H](O)CC[C@H](C)[C@H](OC(=O)CC(=O)O)C[C@]2(O)O[C@H](C[C@@H](OC(=O)CC(=O)O)C[C@H](O)C[C@@H](O)[C@H](C)[C@H](O)/C=C/C=C/[C@@H]1C)C[C@H](O)[C@H]2O show?
> 64 µg/mL
